Hello, the source for this data is ChEMBL document CHEMBL5729103, in case you need it.

- STUDY_SYSTEM: Ubiquitin carboxyl-terminal hydrolase 28 (Homo sapiens, UniProt Q96RU2)
- Sequence (Q96RU2 whole entry): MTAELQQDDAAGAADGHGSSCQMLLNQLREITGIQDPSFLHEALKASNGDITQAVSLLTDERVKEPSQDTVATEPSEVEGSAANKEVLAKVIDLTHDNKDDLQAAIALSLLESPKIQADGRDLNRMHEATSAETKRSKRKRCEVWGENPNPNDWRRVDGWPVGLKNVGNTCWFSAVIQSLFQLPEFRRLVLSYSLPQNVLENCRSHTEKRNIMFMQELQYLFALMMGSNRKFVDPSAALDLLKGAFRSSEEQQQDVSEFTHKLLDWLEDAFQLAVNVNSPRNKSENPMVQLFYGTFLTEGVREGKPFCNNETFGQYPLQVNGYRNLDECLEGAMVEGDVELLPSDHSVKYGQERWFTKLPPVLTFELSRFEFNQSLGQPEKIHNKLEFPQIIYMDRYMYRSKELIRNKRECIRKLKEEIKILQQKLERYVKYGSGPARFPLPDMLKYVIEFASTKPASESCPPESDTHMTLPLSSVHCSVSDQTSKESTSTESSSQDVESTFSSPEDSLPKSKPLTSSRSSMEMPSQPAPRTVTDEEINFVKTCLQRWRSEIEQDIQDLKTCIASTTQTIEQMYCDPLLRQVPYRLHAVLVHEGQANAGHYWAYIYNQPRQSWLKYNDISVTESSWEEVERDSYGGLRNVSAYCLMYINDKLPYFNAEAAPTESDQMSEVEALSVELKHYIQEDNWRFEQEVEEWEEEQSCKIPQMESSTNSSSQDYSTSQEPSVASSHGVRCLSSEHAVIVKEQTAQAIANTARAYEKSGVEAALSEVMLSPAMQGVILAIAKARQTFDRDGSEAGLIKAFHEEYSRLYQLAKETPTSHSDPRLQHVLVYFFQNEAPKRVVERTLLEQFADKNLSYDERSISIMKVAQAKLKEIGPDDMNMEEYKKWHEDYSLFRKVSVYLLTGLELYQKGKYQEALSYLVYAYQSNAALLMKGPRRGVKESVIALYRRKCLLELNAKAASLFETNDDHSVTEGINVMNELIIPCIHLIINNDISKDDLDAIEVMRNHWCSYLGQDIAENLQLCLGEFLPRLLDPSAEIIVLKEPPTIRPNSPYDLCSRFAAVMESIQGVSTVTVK
- METHOD_DESCRIPTION: Biochemical Assay: Ubiquitin-Rhodamine 110 Assay for USP28 Activity: Each assay was performed in a final volume of 20 μL in assay buffer containing 20 mM Tris-HCl (pH 8.0, (1M Tris-HCl, pH 8.0 solution; Corning 46-031-CM)), 2 mM CaCl2 (1M Calcium Chloride solution; Sigma #21114) 2 mM BME (2-Mercaptoethanol; Sigma 63689-25ML-F), 0.01% Prionex (0.22 μM filtered, Sigma #G-0411), and 0.01% Triton X-100. Stock compound solutions were stored at −20° C. as 10 mM in DMSO. Up to 1 month prior to the assay, 2 mM test compounds were pre-dispensed into assay plates (Black, low volume; Corning #3820) and frozen at −20° C. Prestamped assay plates were allowed to come to room temperature on the day of the assay. For the screen, 100 nL of 2 mM was pre-dispensed for a final screening concentration of 10 μM (DMSO(fc)=0.5%). Enzyme (USP28, construct USP28 (USP28-5(1-1077)-TEV-6*His; LifeSensors) concentration and incubation times were optimized for the maximal signal-to-background while maintaining initial velocity conditions at a fixed substrate concentration. The final concentration of the enzyme in the assay was 400 μM. Final substrate (Ub-Rh110; Ubiquitin-Rhodamine 110, R&D Systems #U-555) concentration was 25 nM with [Ub-Rh110]<<Km. 10 μL of 2× enzyme was added to assay plates (pre-stamped with compound) either simultaneously with 2×Ub-Rh110 or preincubated with USP28 40 minutes prior to the addition of 10 μl of 2×Ub-Rh110 to compound plates. Plates were incubated stacked for 90 minutes at room temperature before fluorescence was read on the Envision (Excitation at 485 nm and Emission at 535 nm; Perkin Elmer) or on the PheraSTAR (Excitation at 485 nm and Emission at 535 nm; BMG Labtech).
ATTRIBUTE_MEASURED: IC50

Ask: Value lookup for IC50; key = Cc1cnc2c(N)c(C(=O)NCCc3ccc(N4CC5CCC(C4)N5)cc3)sc2n1
Result: < 200 nM
